# TESTED_ON: Sex hormone-binding globulin (Homo sapiens)
# PROCEDURE_TEXT: In vitro inhibition of [3H]DHT binding to human sex hormone-binding globulin (SHBG)
# Parameters: concentration or dose not given beside the values
MEASUREMENT_LABEL: Reduction (%)

As a guide, the following entries are already answered.
[[record]]
structure_as_smiles = "O=C(/C=C/c1cccnc1)c1ccc(O)cc1"
measurement_label = "Reduction"
units_symbol = "%"
quantitative_result = 57

[[record]]
structure_as_smiles = "Cc1cc(O)c(C(=O)/C=C/c2ccc(O)c([N+](=O)[O-])c2)c(=O)o1"
measurement_label = "Reduction"
units_symbol = "%"
quantitative_result = 1


I: O=C(Cc1ccc(O)cc1)c1ccc(O)cc1O
II: COC(=O)c1cc(CC(=O)c2ccc(O)cc2O)c(C)o1
III: C[C@H]1CC[C@H]2[C@@](C)(CO)[C@@H](O)CC[C@]2(C)[C@@]12CC[C@](CO)(CC(=O)O)O2
IV: CC(=O)c1c(O)c(C)c(O)c2c1OC1=CC(=O)[C@H](C(C)=O)C(=O)[C@]12C
V: C=C1CC[C@H]2[C@](C)(CO)[C@H](O)CC[C@@]2(C)[C@@H]1C/C=C1/C(=O)OC[C@H]1O
Place the items in sequence of falling Reduction. Lab note: final answer is the ordered label list.
I, V, IV, III, II
(I: 95%, V: 7%, IV: 4%, III: 2%, II: 0%)

I: COc1cc([C@H]2OC[C@]3(CO)[C@H](C)[C@H]2C(C)=C[C@@H]3C)ccc1O
II: O=C(Cc1ccc2cccnc2c1)c1ccc(O)cc1O
III: CC[C@@H](O)c1ccc(OC[C@H](O)CN2CCCCC2)c(OC)c1
Place the items in sequence of falling Reduction. Lab note: final answer is the ordered label list.
I, III, II
